Method notes: yeast display, Sf9 membrane polyspecificity reagent, FACS + sequencing; frameworks hold sequencing errors
Readout type: polyreactivity (PSR sort gate)

Construct sequence: QDQLVESGGGLVQAGGSLRLSCAASGSTFPDYAAMGWYRPAPGTERELVAAISKRGGSTYYADSVKGRFTISRDNAKNTVYYQMNSLKPEDTAVYSCNVEYYILTAGRYARAYDYGGQGTQVTVSS
polyreactivity (PSR sort gate): high polyreactivity
//
Construct sequence: QVQLVESGGRLVQAGGSLRLSCAASGRTFTAYTMGGYRQAPGKERELVASNSSGVTYADSVKGRFTISRDNAKNTVYLQMNSLKPEDTAVYYCAARLWYVQGYVPYVHHRFDYWGQGTQVTVSS
polyreactivity (PSR sort gate): low polyreactivity
//
Construct sequence: QVQLVESGGGLVQAGGSLRLSCAASGYTFQRYAMGRYRQAPGKERELVATISKRGGSTYYADSVKGRFTISRDNAKNTVYLQMNSLKPDDTAVYYCATATPEYRGYWPWQYAGGDYWGQGTQVTVSS
polyreactivity (PSR sort gate): high polyreactivity
//
Construct sequence: QVQLVESGGGLVQAGGSLRLSCAASGFTFWYYAMGWYRQAPGKERELVADISTRGGSTYYADSVKGRFTISRDNAKNTVYLQMNSLKPEDTAVYYCAAKYARNLAGDDPYDYWGQGTQVTVSS
polyreactivity (PSR sort gate): high polyreactivity
//
Construct sequence: QVQLVESGGGLVQAGGSLRLSCAASGSIFYYYAMGWYRQAPGKEREFVAAIRESGGSTYYADSVKGRFTISRDNAKNTVYLQMNSLKPEDTAVYYCAVRRPRRNYNYPYDYCGQGTQVTVSS
polyreactivity (PSR sort gate): low polyreactivity
//
Construct sequence: QVQLVESGGGLVQAGGSLRLSCAASGLTFKRYAMGWYRQAPGTEREFVAAISAGGASTHYADSVKGRFTISRDNAKNTVYLQMNSLKPEDTAVYYCATDYRTFRPSFGYWGQGTQVTVSS
polyreactivity (PSR sort gate): low polyreactivity
//
Construct sequence: QVQLVESGGGLVQAGGSLRLSCAASGRIFDVNAMGWYRQAPGKERELVAAIRSGGRTNYADSVNGRFTISRDNAKNTVYLQMNSLKPEDTAVYYCAAVVWSSLDDYWGQGTQVTVSS
polyreactivity (PSR sort gate): high polyreactivity
//
Construct sequence: QVQLIESGGGLVQAGGSLRLSCAASGSTFYGNAMGWYRQAPGKEREFVAAITGSGDSTDYADSVKGRFTISRDNAKNTVYLQMNSLIPEDTAVYYCNAVGYTPSKPSKFDYWGQGTQVTVSS
polyreactivity (PSR sort gate): low polyreactivity

Give a short answer stating reported polyreactivity (PSR sort gate) for `QVQLVESGGGLVQAGGSLRFSCAASGPIFYNNAMGGYRQAPGKERELHAAISYSGGRTYYADSVKGRFTISRDNAKNTVYLQMNSLKPEDTAVYYCATRYARTAYIRSEYWGQGTQVTVSS` .
high polyreactivity

Determine from records and report polyreactivity (PSR sort gate) for `QDQLVESGGGLVQAGGRLRLSCAASGSIFLRNAIGWYRQAPGKERDLVAAISKSGGSTYYADSVKGRFTISRDNAKNTVYLQMNSLKPEDTAVYYCAARTTYLYGMYYWGQGTQVTVSS`
low polyreactivity
